I'd be grateful if you could share measured %Inh for these entries.
test system: TNK2; settings: concentration: 1 μM, replicates: in singlicate; n = 1
Answer with a number only, understood to be in %.

Qu. API: value(readout= %Inh, system= TNK2, query= O=C(O)C(F)(F)F.O=C(O)C(F)(F)F.O=c1[nH]ccc2nc(N[C@@H]3CCCNC3)nc(Nc3ccc(S(=O)(=O)N4CCOCC4)cc3)c12 );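 further: KINOMEscan kinase panel screen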
Ans. 26

Qu. One more molecule: CC(=O)Nc1nc2cnc(Nc3cc(NC(=O)c4cccc(C5(C#N)CC5)c4Cl)ccc3C)nc2s1
Ans. 0

Qu. One more molecule: Nc1ncc(-c2ccc3nccc(-c4ccncc4)c3c2)cc1S(=O)(=O)N1CCOCC1
Ans. 11

Qu. One more molecule: CCc1ccc(-c2ccc3c(c2)-c2c(cnn2C)S(=O)(=O)N3C)cc1
Ans. 0
